Cited source: PubChem BioAssay (EPA / NIEHS)

read-out: Interferon-gamma inducible Protein 10 (IP10), CXCL10 (gene 3627); experiment: BSK_hDFCGF_IP10: BioMAP Diversity Plus: hDFCGF Assay for Interferon-gamma inducible Protein 10 (IP10) Biomarker Activity (AID 2283053); details: primary human foreskin fibroblasts; actives raise or lower the signal
Activity calls are given as the source filed them. The calls were made as follows: active = hit-call score of the fitted dose curve at least 0.9, where 1 is the maximum; inactive = score below 0.9.
Labels: true (active), false (inactive)

1) CCCCCCCCCCCCc1cccc(S(=O)(=O)O)c1 :: true
2) Oc1cc(Cl)c(Cl)cc1Cl :: true
3) Oc1cccc(-c2ccccc2)c1 :: false

----------
Read-out: CD38, CD38 (gene 952)
Experiment: BSK_SAg_CD38: BioMAP Diversity Plus: SAg Assay for CD38 Biomarker Activity (AID 2283087)
Settings: primary human HUVEC with PBMC; actives raise or lower the signal
Description: BSK_SAg is a cell-based, multiplexed-readout assay that uses umbilical vein endothelium and peripheral blood mononuclear cells, a human vascular primary cell co-culture, with measurements taken at 24 hours after chemical dosing in a 96-well plate.BSK_SAg_CD38 is one of 10 assay component(s) measured or calculated from the BSK_SAg assay. […] This assay endpoint, BSK_SAg_CD38, was analyzed with bidirectional fitting relative to DMSO as the negative control and baseline of activity. […]
Activity calls are given as the source filed them. The calls were made as follows: active = hit-call score of the fitted dose curve at least 0.9, where 1 is the maximum; inactive = score below 0.9.
Outcomes: active, inactive

1) CC(C=O)Cc1ccc2c(c1)OCO2 (configuration not stated) :: inactive
2) C=CC(Cl)CCl (configuration not stated) :: inactive
3) CCOC(=O)C(SP(=S)(OC)OC)c1ccccc1 (configuration not stated) :: active
4) OCCN(CCO)CCO :: inactive
5) O=S(=O)(C(Cl)(Cl)Cl)C(Cl)(Cl)Cl :: active
6) Cc1ccccc1OP(=O)(Oc1ccccc1C)Oc1ccccc1C :: active
7) [Cl][Sn]([c]1ccccc1)([c]1ccccc1)[c]1ccccc1 :: active

----------
Read-out: Interleukin-1 alpha (IL1a), IL1A (gene 3552)
Assay: BSK_BE3C_IL1a: BioMAP Diversity Plus: BE3C Assay for Interleukin-1 alpha (IL1a) Biomarker Activity (AID 2283016)
Conditions: primary human bronchial epithelial cells; actives raise or lower the signal
Procedure: BSK_BE3C is a cell-based, multiplexed-readout assay that uses bronchial epithelial cell, a human lung primary cell, with measurements taken at 24 hours after chemical dosing in a 96-well plate.BSK_BE3C_IL1a is an assay component measured in the BSK_BE3C assay. It measures IL-1a antibody related to regulation of gene expression using ELISA technology.Data from the assay component BSK_BE3C_IL1a was analyzed into 1 assay endpoint. […]
Calls of active or inactive are those of the source. Rule for the calls: active = hit-call score of the fitted dose curve at least 0.9, where 1 is the maximum; inactive = score below 0.9.
Outcomes: y = active, n = inactive

1. CC1(C)[C@H](C(=O)O[C@H](C#N)c2cccc(Oc3ccccc3)c2)[C@@H]1/C=C(\Cl)C(F)(F)F :: n
2. Cc1cc(C(C)(C)c2ccc(O)c(C)c2)ccc1O :: y
3. Oc1cccc(-c2ccccc2)c1 :: n
4. Clc1cccc(Cl)c1Cl :: n
5. OC(Cc1ccccc1Cl)(Cn1cncn1)C1(Cl)CC1 (stereo unspecified) :: n
6. N#Cc1cccnc1 :: n
7. O=S(=O)(C(Cl)(Cl)Cl)C(Cl)(Cl)Cl :: y
8. OCCCCO :: n
9. CCC(C)(C#N)N=NC(C)(C#N)CC (stereo unspecified) :: n
10. O=C(O)COc1cc(Cl)c(Cl)cc1Cl :: n
11. Cc1ccc(OP(=O)(Oc2ccc(C)cc2C)Oc2ccc(C)cc2C)c(C)c1 :: y
12. CCCCOC(=O)COC(=O)c1ccccc1C(=O)OCCCC :: n
13. O=C1C=CC(=O)c2ccccc21 :: y
14. CCOC(=O)C(SP(=S)(OC)OC)c1ccccc1 (stereo unspecified) :: n
15. O=S(=O)(c1ccc(Cl)cc1)c1cc(Cl)c(Cl)cc1Cl :: n
16. CC(C)(C)c1cc([N+](=O)[O-])cc(C(C)(C)C)c1O :: n
17. Cc1ccccc1OP(=O)(Oc1ccccc1C)Oc1ccccc1C :: y
18. CCOP(=O)(OCC)OC(=CCl)c1ccc(Cl)cc1Cl :: n
19. CCOC(=O)CCN(SN(C)C(=O)Oc1cccc2c1OC(C)(C)C2)C(C)C :: n
20. CCN(CC)C(=O)C(Cl)=C(C)OP(=O)(OC)OC :: n
21. Oc1c(Br)cc(Br)cc1Br :: n
